Would you kindly list remaining proliferation (% of control), lower = more inhibition for each of these compounds?
Experiment: qHTS profiling for inhibitors of Plasmodium falciparum (HB3) proliferation (AID 743324);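 also: 100% = DMSO vehicle wells and 0% = artemisinin-treated control wells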
Conditions: Plasmodium falciparum HB3 blood-stage proliferation; at 28.7 µM (top of the series)
From the text: Plasmodium falciparum is a virulent malarial parasite that kills 1-2 million people worldwide each year. Transmitted by mosquitoes, the sporozoite form of the parasite enters the blood stream to infect hepatocytes, where they become merozoites that infect red blood cells (erythrocytes). […] Because mature erythrocytes lack DNA, only Plasmodium-derived DNA is detected. […]
Number only, in %; omit the unit.

remaining proliferation (% of control), lower = more inhibition reported for this compound COc1ccc(OC)c(-c2nnc3ccc(-c4ccc(OC)c(O[C@@H]5CCOC5)c4)nn23)c1 : 0.357

// sample Cn1c(=O)n(-c2ccc(C(C)(C)C#N)cc2)c2c3cc(-c4cnc5ccccc5c4)ccc3ncc21 , its remaining proliferation (% of control), lower = more inhibition was 1.06

remaining proliferation (% of control), lower = more inhibition in this record for c1nc2nc(Nc3ccc(N4CCOCC4)cc3)nc(NC3CCCCC3)c2[nH]1 : -0.173

Record summary for Nc1nc(Nc2ccc(S(N)(=O)=O)cc2)nn1C(=O)c1c(F)cccc1F : reported remaining proliferation (% of control), lower = more inhibition = 10.9

Quick note, remaining proliferation (% of control), lower = more inhibition for COc1cc(C(C)C)c2c(c1)S(=O)(=O)N(COc1cc(=O)n3cccc(OCCN4CCCCC4)c3n1)C2=O landed at 89.5

remaining proliferation (% of control), lower = more inhibition reading for Cc1cc(Nc2cc(N3CCN(C)CC3)nc(C=Cc3ccccc3)n2)n[nH]1 : 0.814
